The compounds listed here are annotated with their IC50.
# test target: human MC5R (hMC5R) (Homo sapiens)
# Construct: purchased Perkin Elmer RBXMC5M400UA
# Sequence (P33032 whole entry): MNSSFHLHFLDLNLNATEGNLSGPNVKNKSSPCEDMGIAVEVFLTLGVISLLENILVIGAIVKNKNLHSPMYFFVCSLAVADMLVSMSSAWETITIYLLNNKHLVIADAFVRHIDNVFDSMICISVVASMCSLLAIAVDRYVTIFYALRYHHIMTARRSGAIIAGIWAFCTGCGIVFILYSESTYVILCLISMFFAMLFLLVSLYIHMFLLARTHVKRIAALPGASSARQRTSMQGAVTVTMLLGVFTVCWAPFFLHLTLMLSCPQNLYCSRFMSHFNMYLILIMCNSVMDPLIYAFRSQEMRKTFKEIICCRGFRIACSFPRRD
# protocol notes: Human MC5R radioligand binding assay ([125I] NDP-MSH displacement)
# condition context: Table 5, hMCR binding selectivity; read-out: human MC5R IC50
Report the figure in nM without appending any unit label.

Q) Field request: IC50 | item: CC[C@H](CN1CC[C@@H](CNC(=O)c2ccc3cc(Cl)ccc3c2)N[C@@H](CCC(C)C)C1=O)c1ccccc1
A) 30

Q) Field request: IC50 | item: CC[C@H](CN1CC[C@@H](CNC(=O)c2ccc3cc(Cl)ccc3c2)N[C@@H](CCC(=O)N2CCCCC2)C1=O)c1ccccc1
A) 50
